- SYSTEM NAME: T1, 4H492-bH
- T1 chain: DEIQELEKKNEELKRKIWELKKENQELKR
- PROTOCOL NOTES: two-hybrid library CCNG1;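 also: natural log of median RNA to DNA barcode read ratio; higher means stronger binding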
Some binders, each annotated with its measured interaction score.
MEASURED QUANTITY: interaction score

BINDER: DEIQELEKKIEELKRENWELKKENQELKR [4H348-bH]
RESULT: -0.683
--
BINDER: DEIQELEKENEELERKNWELEKKIQELKR [4H182-bH]
RESULT: -0.775
--
BINDER: DKIQELKKKNEELKRKNWELEKEIQELER [4H3057-bH]
RESULT: -1.13
--
BINDER: DEIQELEKKIEELERKNWELKKKNQELER [4H319-bH]
RESULT: -0.172
